For each of the binders below, state its Adjusted binding affinity.
Molecular target: human somatostatin receptor subtype SSTR3 (human) (UniProt P32745)
Sequence (P32745 whole entry): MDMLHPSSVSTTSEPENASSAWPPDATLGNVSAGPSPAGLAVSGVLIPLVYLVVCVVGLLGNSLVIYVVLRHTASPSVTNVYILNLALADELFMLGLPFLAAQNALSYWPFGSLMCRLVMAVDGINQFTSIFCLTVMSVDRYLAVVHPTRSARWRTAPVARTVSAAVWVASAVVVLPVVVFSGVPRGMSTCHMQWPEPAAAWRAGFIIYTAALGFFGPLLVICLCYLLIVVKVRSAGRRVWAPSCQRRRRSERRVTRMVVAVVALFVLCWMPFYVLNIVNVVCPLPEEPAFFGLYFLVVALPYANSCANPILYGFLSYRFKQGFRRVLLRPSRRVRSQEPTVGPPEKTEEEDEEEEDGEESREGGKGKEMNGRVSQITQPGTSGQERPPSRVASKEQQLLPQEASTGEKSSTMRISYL
Assay: FACS, transfected HEK-293 cells; row normalised to highest
*1 amine or outer side, *2 acyl side, *3 side chain or, on linkers, in order; H or OH if unused. Bridges are numbered along the chain shown (N, C = ends). Primed or numbered codes have the meaning given here. [ ]: non-standard residue; d: D form. N(2-mercaptoethyl)Gly = O=C(CN(CCS[*:3])[*:1])[*:2]; FITC′ = fluorescein isothiocyanate; Orn = NCCC[C@H](N)C(=O)O; Aib = CC(C)(N)C(=O)O; GABA = NCCCC(=O)O

*Q* Fill blank: measured Adjusted binding affinity of the binder {FITC′-GABA}-[dF]CFW[dW]RTF[N(2-mercaptoethyl)Gly]-NH2 (disulfide 2-9) [Compound 15] is ____.
*A* 1

*Q* Thanks! And XCFWXXTFX (FITC-GABA-DPhe-Cys*-Phe-Trp-DTrp-HomoLys-Thr-Phe-GlyS2*-NH2 (* = S-S bond; HomoLys = homolysine; GlyS2 = N-thioethyl glycine; C-terminal amide)) [Compound 16] ?
*A* 1

*Q* What do you have for XCFWXXTFX (FITC-GABA-DPhe-Cys*-Phe-Trp-DTrp-Orn-Thr-Phe-GlyS2*-NH2 (* = S-S bond; GlyS2 = N-thioethyl glycine; Orn = ornithine; C-terminal amide)) [Compound 3] ?
*A* 1

*Q* What about this binder? {FITC′-GABA}-[dF]CFW[dW][Aib]TF[N(2-mercaptoethyl)Gly]-NH2 (disulfide 2-9) [Compound 13]
*A* 0.67

*Q* Repeat for the following binder: {FITC′-GABA}-[dF]RCF[dW][Orn]TF[N(2-mercaptoethyl)Gly]-NH2 (disulfide 3-9) [Compound 5]
*A* 1

*Q* Also check {FITC′-GABA}-[dF]CY[dW][Orn]TF[N(2-mercaptoethyl)Gly]-NH2 (disulfide 2-8) [Compound 7]
*A* 1

*Q* Same thing, different binder: {FITC′-GABA}-[dF]CYW[dW]KTF[N(2-mercaptoethyl)Gly]-NH2 (disulfide 2-9) [Compound 4]
*A* 1

*Q* Same question for XCFWXKTFX (FITC-GABA-DPhe-Cys*-Phe-Trp-DTrp-Lys-Thr-Phe-GlyS2*-NH2 (* = S-S bond; GlyS2 = N-thioethyl glycine; FITC-GABA on the N-terminal amine; C-terminal amide)) [Compound 1] please.
*A* 0.6

*Q* Thanks! And {FITC′-GABA}-[dF]RCY[dW]KTF[N(2-mercaptoethyl)Gly]-NH2 (disulfide 3-9) [Compound 6] ?
*A* 1

*Q* Also {FITC′-GABA}-[dF]RCF[dW]KTF[N(2-mercaptoethyl)Gly]-NH2 (disulfide 3-9) [Compound 2] ?
*A* 0.8

*Q* Try this binder too: {FITC′-GABA}-[dF]CRFF[dW]KTF[N(2-mercaptoethyl)Gly]-NH2 (disulfide 2-10) [Compound 8]
*A* 0.37
